target: abl (Homo sapiens, UniProt P00519); assay: abl kinase assay (ELISA or Alphascreen); format: biochemical; conditions: capacity to inhibit 50% of activity at 50 μM; read-out: abl inhibitory activity
Sequence (P00519 242-493 limits assumed, species assumed): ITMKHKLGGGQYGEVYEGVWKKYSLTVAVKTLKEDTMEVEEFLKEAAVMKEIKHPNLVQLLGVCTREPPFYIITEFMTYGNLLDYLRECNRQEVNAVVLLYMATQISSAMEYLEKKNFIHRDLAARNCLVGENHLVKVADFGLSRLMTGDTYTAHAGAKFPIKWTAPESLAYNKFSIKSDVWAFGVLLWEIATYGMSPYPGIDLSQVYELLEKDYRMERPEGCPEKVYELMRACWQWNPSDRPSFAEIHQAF
This section presents compounds with their documented inhibition at 50 µM values.

Please list inhibition at 50 µM recorded for the compound C[C@H](Nc1cncc(-n2cnc3cc(C(=O)NCCCN4CCOCC4)ccc32)n1)c1ccccc1
> 50%

State its inhibition at 50 µM for this compound: c1ccc2c(c1)ncn2-c1cncc(Nc2ccc(N3CCOCC3)cc2)n1
< 50%

Find the measured inhibition at 50 µM of C[C@H](Nc1cncc(-n2cnc3ccc(NC(=O)c4cnccn4)cc32)n1)c1ccccc1 and report it.
< 50%

Output inhibition at 50 µM of CC(Nc1cncc(-n2cnc3ccccc32)n1)c1ccc(-c2ccccc2)cc1 (centres unmarked)
> 50%

Report inhibition at 50 µM, nothing else, for this compound: C[C@H](Nc1cncc(-n2cnc3ccccc32)n1)c1ccc(-c2cccnc2)cc1
< 50%

====

# inhibition at 50 µM listing for each entry below
target: abl (Homo sapiens, UniProt P00519); assay: abl kinase assay (ELISA or Alphascreen); format: biochemical; details: capacity to inhibit 50% of activity at 50 μM; read-out: abl inhibitory activity

As a guide, the following entries are already answered.
C[C@H](Nc1cncc(-n2cnc3ccc(NC(=O)c4ccncc4)cc32)n1)c1ccccc1 | > 50%
c1ccc(CNc2cncc(-n3cnc4ccccc43)n2)cc1 | > 50%
Cc1nccn1-c1cncc(NCc2ccc(F)cc2)n1 | < 50%
C[C@H](Nc1cncc(-n2cnc3ccc(NC(=O)c4cccnc4)cc32)n1)c1ccccc1 | > 50%

Please list inhibition at 50 µM recorded for the compound C[C@H](Nc1cncc(-n2cnc3cc(NC(=O)c4ccncc4)ccc32)n1)c1ccccc1
> 50%

====

molecular target: UniProtKB P35968; experiment: kdr kinase assay (ELISA or Alphascreen); format: biochemical; settings: capacity to inhibit 50% of activity at 50 μM; read-out: kdr inhibitory activity
molecules and their reported inhibition at 50 µM

Recorded results for 6 molecules are shown here.
COCC(=O)Nc1ccc2ncn(-c3cncc(N[C@@H](C)c4ccccc4)n3)c2c1 | > 50%
C[C@@H](Nc1cncc(-n2cnc3ncccc32)n1)c1ccccc1 | < 50%
C[C@H](Nc1cncc(-n2cnc3cc(C(=O)NCCCn4ccnc4)ccc32)n1)c1ccccc1 | > 50%
C[C@@H](Nc1cncc(-n2ccnc2)n1)c1ccccc1 | < 50%
CC(Nc1cncc(-n2cnc3ccccc32)n1)c1ccc(-c2ccccc2)cc1 (stereo not drawn) | < 50%
C[C@H](Nc1cncc(-n2cnc3ccc(C(=O)N4CCOCC4)cc32)n1)c1ccccc1 | > 50%

Quote inhibition at 50 µM reported for C[C@H](Nc1cncc(-n2cnc3ccccc32)n1)c1ccc(-c2cccnc2)cc1 please.
> 50%

Give the measured inhibition at 50 µM for C[C@H](Nc1cncc(-n2cnc3cc(C(=O)Nc4ccccc4)ccc32)n1)c1ccccc1
< 50%

Supply measured inhibition at 50 µM of C[C@H](Nc1cncc(-n2cnc3cc(NC(=O)[C@@H]4CCCN4C(=O)OC(C)(C)C)ccc32)n1)c1ccccc1 in your reply.
> 50%

====

biological target: Jak3 (Homo sapiens); construct: The kinase domain of humanJAK3 was amplified from U937mRNA; His tag (from pFastBac HTb vector) (N); made in house; host or cells: baculovirus; Sf9 insect cells for virus, High Five cells for large-scale production; assay: JAK3 kinase domain assay (ELISA or Alphascreen); assay type: biochemical; details: capacity to inhibit 50% of activity at 50 μM; read-out: Jak3 inhibitory activity
inhibition at 50 µM for assorted molecules

C[C@H](Nc1cncc(-n2cnc3cc(C(=O)NCCN(C)C)ccc32)n1)c1ccccc1 | < 50%
C[C@H](Nc1cncc(-n2cnc3cc(NS(=O)(=O)c4ccccc4)ccc32)n1)c1ccccc1 | > 50%
C[C@H](Nc1cncc(-n2cnc3ccc(NC(=O)c4ccncc4)cc32)n1)c1ccccc1 | < 50%
c1ccc2c(c1)ncn2-c1cncc(Nc2ccc(N3CCOCC3)cc2)n1 | < 50%

Determine from records and report inhibition at 50 µM for C[C@H](Nc1cncc(-n2cnc3cc(N)ccc32)n1)c1ccccc1
< 50%

// fetch inhibition at 50 µM given entry C[C@@H](Nc1cncc(-n2cnc(-c3ccccc3)c2)n1)c1ccccc1
< 50%

Hello, please tell me recorded inhibition at 50 µM for this one: Cc1cn(-c2cncc(NCc3ccc(F)cc3)n2)cn1
< 50%

Item C[C@H](Nc1cncc(-n2cnc3ccc(CO)cc32)n1)c1ccccc1 : provide inhibition at 50 µM
> 50%

Return the recorded inhibition at 50 µM value; entry: C[C@H](Nc1cncc(-n2cnc3cc(NC(=O)C(C)(C)C)ccc32)n1)c1ccccc1
> 50%

For C[C@H](Nc1cncc(-n2cnc3ccccc32)n1)c1ccccc1 , write its inhibition at 50 µM.
< 50%

Please indicate inhibition at 50 µM recorded for C[C@H](Nc1cncc(-n2cnc3cc(Br)ccc32)n1)c1ccccc1
> 50%

Check the records and state inhibition at 50 µM for Cc1cncn1-c1cncc(NCc2ccc(F)cc2)n1
< 50%

Hello, please tell me recorded inhibition at 50 µM for this one: C[C@@H](Nc1cncc(-n2cnc3ncccc32)n1)c1ccccc1
< 50%

Tell me measured inhibition at 50 µM for C[C@H](Nc1cncc(-n2cnc3cc(C(=O)NCCCn4ccnc4)ccc32)n1)c1ccccc1 please.
< 50%

====

molecular target: Jak3 (Homo sapiens, UniProt P52333); construct: The kinase domain of humanJAK3 was amplified from U937mRNA; His tag (from pFastBac HTb vector) (N); made in house; host or cells: baculovirus; Sf9 insect cells for virus, High Five cells for large-scale production; test: JAK3 kinase domain assay (ELISA or Alphascreen); format: biochemical; conditions: capacity to inhibit 50% of activity at 50 μM; read-out: Jak3 inhibitory activity
Sequence (P52333 822-1111 limits assumed): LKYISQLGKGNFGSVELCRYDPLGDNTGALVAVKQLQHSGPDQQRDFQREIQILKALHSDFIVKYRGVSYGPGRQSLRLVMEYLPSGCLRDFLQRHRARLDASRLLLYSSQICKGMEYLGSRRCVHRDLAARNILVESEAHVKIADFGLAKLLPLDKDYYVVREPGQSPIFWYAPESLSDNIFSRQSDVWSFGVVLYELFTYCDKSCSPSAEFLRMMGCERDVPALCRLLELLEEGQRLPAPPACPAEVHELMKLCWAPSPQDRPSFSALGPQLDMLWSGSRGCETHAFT
Reported values of inhibition at 50 µM for individual entries

Solved entries:
C[C@H](Nc1cncc(-n2cnc3cc(CN4CCN(C)CC4)ccc32)n1)c1ccccc1 | < 50%
C[C@H](Nc1cncc(-n2cnc3cc(NC(=O)C4CCCNC4)ccc32)n1)c1ccccc1 (some centres unmarked) | > 50%
C[C@H](Nc1cncc(-n2cnc3ccccc32)n1)c1ccc(Br)cc1 | < 50%
C[C@H](Nc1cncc(-n2cnc3ccc(C(=O)NCCCCN4CCOCC4)cc32)n1)c1ccccc1 | > 50%

Switching to the query record.
Name the recorded inhibition at 50 µM of the item C[C@H](Nc1cncc(-n2cnc3cnccc32)n1)c1ccccc1 in your answer.
> 50%

====

inhibition at 50 µM for assorted compounds
target: Jak3 (Homo sapiens); construct: The kinase domain of humanJAK3 was amplified from U937mRNA; His tag (from pFastBac HTb vector) (N); made in house; host or cells: baculovirus; Sf9 insect cells for virus, High Five cells for large-scale production; assay: JAK3 kinase domain assay (ELISA or Alphascreen); type: biochemical; settings: capacity to inhibit 50% of activity at 50 μM; read-out: Jak3 inhibitory activity

These solved cases illustrate the format of a correct answer.
Cc1nccn1-c1cncc(NCc2ccc(F)cc2)n1 | > 50%
C[C@H](Nc1cncc(-n2cnc3cc(C(=O)NCCCCN4CCOCC4)ccc32)n1)c1ccccc1 | > 50%
Fc1ccc(CNc2cncc(-n3ccnc3)n2)cc1 | > 50%
C[C@H](Nc1cncc(-n2cnc3cc(CO)ccc32)n1)c1ccccc1 | < 50%
C[C@H](Nc1cncc(-n2cnc3ccc(NC(=O)c4cnccn4)cc32)n1)c1ccccc1 | < 50%

Please give measured inhibition at 50 µM of the following entry: C[C@H](Nc1cncc(-n2cnc3cc(NS(C)(=O)=O)ccc32)n1)c1ccccc1
< 50%

Please report inhibition at 50 µM for the following compound: CNC(=O)c1ccc2c(c1)ncn2-c1cncc(N[C@@H](C)c2ccccc2)n1
< 50%

Look up and report measured inhibition at 50 µM for this entry: C[C@H](Nc1cncc(-n2cnc3cc(C(=O)N4CCOCC4)ccc32)n1)c1ccccc1
< 50%

Report inhibition at 50 µM, nothing else, for this compound: C[C@H](Nc1cncc(-n2cnc3ccc(C(=O)NCCO)cc32)n1)c1ccccc1
> 50%

Tell us which inhibition at 50 µM value is on record for C[C@H](Nc1cncc(-n2cnc3cc(C(N)=O)ccc32)n1)c1ccccc1
< 50%

Name the recorded inhibition at 50 µM of the item C[C@H](Nc1cncc(-n2cnc3cc(NC(=O)C4CC4)ccc32)n1)c1ccccc1 in your answer.
< 50%

Retrieve inhibition at 50 µM measured for COc1ccc([C@H](C)Nc2cncc(-n3cnc4ccccc43)n2)cc1 and print it.
< 50%

Consider the compound C[C@H](Nc1cncc(-n2cnc3ccc(NS(C)(=O)=O)cc32)n1)c1ccccc1 and give its recorded inhibition at 50 µM.
< 50%

====

Recorded inhibition at 50 µM for the following molecules
biological target: kdr (Homo sapiens); assay: kdr kinase assay (ELISA or Alphascreen); type: biochemical; settings: capacity to inhibit 50% of activity at 50 μM; read-out: kdr inhibitory activity
Sequence (P35968 834-1162 limits assumed, species assumed): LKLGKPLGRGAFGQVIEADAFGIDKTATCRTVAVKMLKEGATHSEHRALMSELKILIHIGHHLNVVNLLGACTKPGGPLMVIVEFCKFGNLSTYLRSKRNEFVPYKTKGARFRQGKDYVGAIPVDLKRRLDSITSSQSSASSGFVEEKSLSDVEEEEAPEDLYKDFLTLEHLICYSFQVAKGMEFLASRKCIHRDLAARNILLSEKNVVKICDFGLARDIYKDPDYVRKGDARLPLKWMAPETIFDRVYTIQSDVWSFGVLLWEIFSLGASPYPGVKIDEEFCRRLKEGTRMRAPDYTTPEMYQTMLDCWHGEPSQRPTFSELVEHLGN

Solved entries (count: 9):
C[C@H](Nc1cncc(-n2cnc3ccc(N)cc32)n1)c1ccccc1 | > 50%
Fc1ccc(CNc2cncc(-n3cnc4ccccc43)n2)cc1 | < 50%
Fc1ccc(CNc2cncc(-n3ccnc3)n2)cc1 | < 50%
C[C@H](Nc1cncc(-n2cnc3cc(C4=NCCO4)ccc32)n1)c1ccccc1 | > 50%
CC(=O)Nc1ccc2c(c1)ncn2-c1cncc(N[C@@H](C)c2ccccc2)n1 | > 50%
C[C@H](Nc1cncc(-n2cnc3ccc(NC(=O)c4ccncc4)cc32)n1)c1ccccc1 | > 50%
C[C@H](Nc1cncc(-n2cnc3ccccc32)n1)c1ccc(Br)cc1 | > 50%
CNCCN(C)Cc1ccc2ncn(-c3cncc(NC(C)c4ccc(F)cc4)n3)c2c1 (stereo not shown) | > 50%
COCC(=O)Nc1ccc2c(c1)ncn2-c1cncc(N[C@@H](C)c2ccccc2)n1 | > 50%

Item C[C@@H](Nc1cncc(-n2cnc3ccccc32)n1)c1ccccc1 : provide inhibition at 50 µM
> 50%

Hello, the source for this data is patent US7511047B2, in case you need it.
